These measurements were taken from the supplement of paper PMC10567573.

B1: RAB11A (parent)
chain: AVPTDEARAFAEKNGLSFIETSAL

# Variants of: B1
# Experiment Notes: protein stability index of a GFP-peptide fusion (GPS, HEK-293T) (PSI 1-6); higher = more stable;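 also: lentivirally expressed fusions sorted by FACS into six bins by GFP to DsRed ratio, PSI derived from sequencing read proportions per bin multiplied by bin number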
# Details: c terminus: a fixed tail appended
Observed Property: protein stability index
Lab note: jot down the number only; don't add units.

In plain terms, A1D has a documented protein stability index of 2.82

In plain terms, E12A has a documented protein stability index of 2.07

In plain terms, L16G has a documented protein stability index of 4.35

In plain terms, A9L has a documented protein stability index of 2.45

In plain terms, L24C has a documented protein stability index of 3.07

In plain terms, S17V has a documented protein stability index of 2.79

In plain terms, L24N has a documented protein stability index of 4.47

In plain terms, A23Q has a documented protein stability index of 2.52

In plain terms, S22L has a documented protein stability index of 2.5

In plain terms, L24M has a documented protein stability index of 3.08

In plain terms, D5G has a documented protein stability index of 1.94

In plain terms, A7R has a documented protein stability index of 2.46

In plain terms, I19R has a documented protein stability index of 3.85

In plain terms, A11N has a documented protein stability index of 2.5

In plain terms, A23M has a documented protein stability index of 1.81

In plain terms, E20V has a documented protein stability index of 1.86

In plain terms, F10W has a documented protein stability index of 2.36

In plain terms, R8L has a documented protein stability index of 2.16

In plain terms, G15R has a documented protein stability index of 2.52

In plain terms, E20N has a documented protein stability index of 2.24

In plain terms, T21P has a documented protein stability index of 2.15

In plain terms, S22A has a documented protein stability index of 2.35
